Test system: MCF7
ASSAY EXPLANATION: Cytotoxicity against human MCF7 cells
Assay type: functional, cell-based
# IC50 per entry
Answer with a number only, understood to be in µg/mL.

Query block: Return value of IC50 for input COc1ccc2cc1Oc1ccc(cc1)C[C@H]1c3c(cc(OC)c4c3Oc3cc5c(cc3O4)CCN(C)[C@H]5C2)CCN1C , no commentary.
Result block: 3.9

Query block: Recall and state the measured IC50 for COc1ccc2c(c1O)[C@]13CCN[C@@H](C2)C1C(OC)[C@@H](O)[C@@H](O)C3 (stereo partly specified) .
Result block: 2

Query block: Note IC50 for the compound shown: COc1cc2c3c4c1Oc1cc5c(cc1O4)C(=NCC5)Cc1ccc(O)c(c1)Oc1ccc(cc1)C[C@@H]3N(C)CC2 [DEHYDROAPATELINE]
Result block: 16.3

Query block: Please give the documented IC50 of CC(=O)O[C@H]1C(=O)[C@@]2(C)[C@H]([C@H](OC(=O)c3ccccc3)[C@]3(O)C[C@H](OC(=O)[C@H](O)[C@@H](NC(=O)c4ccccc4)c4ccccc4)C(C)=C1C3(C)C)[C@]1(OC(C)=O)CO[C@@H]1C[C@@H]2O
Result block: 0.14
